Just for reference, the supplement of paper PMC10681739 is where these values come from.

Biological target: ETS1 (UniProt P14921)
Sequence: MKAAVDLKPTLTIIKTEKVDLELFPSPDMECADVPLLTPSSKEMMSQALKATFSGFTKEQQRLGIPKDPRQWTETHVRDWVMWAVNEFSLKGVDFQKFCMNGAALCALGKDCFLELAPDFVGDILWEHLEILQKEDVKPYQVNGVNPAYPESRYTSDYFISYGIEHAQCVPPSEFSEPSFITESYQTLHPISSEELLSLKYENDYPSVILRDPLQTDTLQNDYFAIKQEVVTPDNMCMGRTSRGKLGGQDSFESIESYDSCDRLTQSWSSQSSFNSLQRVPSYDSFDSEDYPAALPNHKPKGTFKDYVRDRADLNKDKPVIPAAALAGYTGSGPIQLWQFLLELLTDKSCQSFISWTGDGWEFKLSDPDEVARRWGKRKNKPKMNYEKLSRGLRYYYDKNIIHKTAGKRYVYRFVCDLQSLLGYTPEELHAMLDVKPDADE
Experiment: ETS1 binding intensity (PBM fluorescence) in presence of RUNX1, normalised to ETS1-only experiment (arbitrary fluorescence units); higher = stronger binding
Conditions: ETS1 concentration 1 nM; RUNX1 concentration 25 nM
This section presents sequences with their documented ETS1 binding intensity values.
The response must contain the number and no unit.

sequence CTCGCGATTCCTCTTCCGCTGCGGTCTCCTTAACAC , ETS1 binding intensity observed: 841
